Cited source: patent US20200317779A1

- STUDY_TARGET: recombinant human CD3ε/δ heterodimer (human) (UniProt P07766)
- Sequence (P07766 23-126, stated change not applied, chain 1 of 2): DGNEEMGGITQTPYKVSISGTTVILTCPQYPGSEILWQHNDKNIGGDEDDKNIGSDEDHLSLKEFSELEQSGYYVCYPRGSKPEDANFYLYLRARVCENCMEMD
- Sequence (P04234 22-105, stated change not applied, chain 2 of 2, further chain): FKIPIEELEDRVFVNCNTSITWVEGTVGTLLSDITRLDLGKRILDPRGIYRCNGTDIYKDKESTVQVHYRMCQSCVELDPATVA
- ASSAY: ELISA, coated CD3ε/δ
In this section, each of the binders is paired with its reported Absorbance (450 nm).
PARAMETER_MEASURED: Absorbance (450 nm)

>>> endpoint_value("E14 (antibody, human IgG1, lambda, L234A L235A, V domains shown) VH: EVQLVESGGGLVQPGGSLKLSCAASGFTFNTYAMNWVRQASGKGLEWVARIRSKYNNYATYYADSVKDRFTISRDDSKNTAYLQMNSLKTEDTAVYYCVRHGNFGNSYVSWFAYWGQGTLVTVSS VL: QAVVTQEPSLTVSPGGTVTLTCRSSTGAVTTSNYANWVQQKPGQAPRGLIYGTNKRAPWTPARFSGSLLGDKAALTLSGAQPEDEAEYYCALWYSNLWVFGGGTKLTVLG")
0.105
>>> endpoint_value("A05 (antibody, human IgG1, lambda, L234A L235A, V domains shown) VH: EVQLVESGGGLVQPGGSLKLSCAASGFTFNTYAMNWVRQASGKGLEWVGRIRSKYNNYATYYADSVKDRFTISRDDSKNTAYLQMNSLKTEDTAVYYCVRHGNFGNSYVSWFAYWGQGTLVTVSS VL: QAVVTQEPSLTVSPGGTVTLTCRSSTGAVTTSNYANWFQQKPGQAPRGLIYGTNKRAPWTPARFSGSLLGGKAALTLSGAQPEDEAEYYCALWYSNLWVFGGGTKLTVLG")
0.167
>>> endpoint_value("G07 (antibody, human IgG1, lambda, L234A L235A, V domains shown) VH: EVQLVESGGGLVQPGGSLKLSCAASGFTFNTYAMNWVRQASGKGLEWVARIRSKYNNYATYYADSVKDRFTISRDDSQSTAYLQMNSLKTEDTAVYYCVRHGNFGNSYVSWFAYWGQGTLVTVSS VL: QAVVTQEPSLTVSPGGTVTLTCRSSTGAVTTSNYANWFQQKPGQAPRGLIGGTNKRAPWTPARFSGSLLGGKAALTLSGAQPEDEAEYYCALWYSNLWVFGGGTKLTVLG")
0.118
>>> endpoint_value("G06 (antibody, human IgG1, lambda, L234A L235A, V domains shown) VH: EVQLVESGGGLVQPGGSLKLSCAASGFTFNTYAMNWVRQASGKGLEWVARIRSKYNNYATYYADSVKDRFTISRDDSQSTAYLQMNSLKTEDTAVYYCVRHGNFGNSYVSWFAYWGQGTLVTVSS VL: QAVVTQEPSLTVSPGGTVTLTCRSSTGAVTTSNYANWFQQKPGQAPRGLIYGTNKRAPWTPARFSGSLLGDKAALTLSGAQPEDEAEYYCALWYSNLWVFGGGTKLTVLG")
0.118
>>> endpoint_value("C02 (antibody, human IgG1, lambda, L234A L235A, V domains shown) VH: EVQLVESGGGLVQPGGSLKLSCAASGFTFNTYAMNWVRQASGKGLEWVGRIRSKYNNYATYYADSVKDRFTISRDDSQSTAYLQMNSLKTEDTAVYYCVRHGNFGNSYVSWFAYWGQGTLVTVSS VL: QAVVTQEPSLTVSPGGTVTLTCRSSTGAVTTSNYANWFQQKPGQAPRTLIYGTNKRAPWTPARFSGSLLGDKAALTLSGAQPEDEAEYYCALWYSNLWVFGGGTKLTVLG")
0.099
>>> endpoint_value("D15 (antibody, human IgG1, lambda, L234A L235A, V domains shown) VH: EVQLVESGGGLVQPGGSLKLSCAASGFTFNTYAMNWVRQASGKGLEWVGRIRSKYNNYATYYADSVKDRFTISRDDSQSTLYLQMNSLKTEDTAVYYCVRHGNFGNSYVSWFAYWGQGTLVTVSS VL: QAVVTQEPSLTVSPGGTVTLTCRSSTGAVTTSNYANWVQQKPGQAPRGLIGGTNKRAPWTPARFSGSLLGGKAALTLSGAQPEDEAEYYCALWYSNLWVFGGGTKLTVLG")
2.53
>>> endpoint_value("F04 (antibody, human IgG1, lambda, L234A L235A, V domains shown) VH: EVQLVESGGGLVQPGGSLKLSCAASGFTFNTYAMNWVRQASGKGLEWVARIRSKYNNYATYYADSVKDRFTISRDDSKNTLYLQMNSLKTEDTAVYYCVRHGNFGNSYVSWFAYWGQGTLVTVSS VL: QAVVTQEPSLTVSPGGTVTLTCRSSTGAVTTSNYANWFQQKPGQAPRTLIGGTNKRAPWTPARFSGSLLGDKAALTLSGAQPEDEAEYYCALWYSNLWVFGGGTKLTVLG")
0.084
>>> endpoint_value("E16 (antibody, human IgG1, lambda, L234A L235A, V domains shown) VH: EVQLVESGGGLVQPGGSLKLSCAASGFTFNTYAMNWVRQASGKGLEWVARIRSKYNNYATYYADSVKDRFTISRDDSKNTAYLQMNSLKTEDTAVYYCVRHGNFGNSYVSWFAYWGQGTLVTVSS VL: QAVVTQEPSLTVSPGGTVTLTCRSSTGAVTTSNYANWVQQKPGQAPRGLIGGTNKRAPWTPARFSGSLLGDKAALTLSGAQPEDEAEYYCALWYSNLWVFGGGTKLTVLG")
2.4
>>> endpoint_value("A08 (antibody, human IgG1, lambda, L234A L235A, V domains shown) VH: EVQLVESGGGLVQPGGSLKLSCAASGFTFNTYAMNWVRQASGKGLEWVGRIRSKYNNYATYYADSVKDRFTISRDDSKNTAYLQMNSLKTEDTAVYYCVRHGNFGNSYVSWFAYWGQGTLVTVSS VL: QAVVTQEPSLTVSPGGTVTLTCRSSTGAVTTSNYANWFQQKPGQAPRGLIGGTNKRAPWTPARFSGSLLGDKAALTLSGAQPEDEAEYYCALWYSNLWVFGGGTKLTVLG")
0.875
>>> endpoint_value("G13 (antibody, human IgG1, lambda, L234A L235A, V domains shown) VH: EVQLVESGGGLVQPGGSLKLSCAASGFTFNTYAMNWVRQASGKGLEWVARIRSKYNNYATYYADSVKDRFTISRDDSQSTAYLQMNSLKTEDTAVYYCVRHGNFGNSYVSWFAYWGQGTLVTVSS VL: QAVVTQEPSLTVSPGGTVTLTCRSSTGAVTTSNYANWVQQKPGQAPRGLIYGTNKRAPWTPARFSGSLLGGKAALTLSGAQPEDEAEYYCALWYSNLWVFGGGTKLTVLG")
0.265
